Test system: U2OS
Measurement Notes: Multiplex assay against U2OS
Assay type: toxicity, cell-based
Protocol Conditions: human, 12 h, 1 µM, compound concentration 1 uM, replicate 2
// boundary case: Population Normal (%) equal to 90% maps to no; strictly smaller maps to yes

Compound: C[C@@]1(C(=O)Nc2ccc(F)nc2)CCCN1c1nc(Nc2cc(C3CC3)n[nH]2)c2cccn2n1
Category: yes

Compound: CC(C)(O)CNc1ncc(-c2ccnc(Nc3ccnc(Cl)c3)n2)c(CC2CC2)n1
Category: no

Compound: NC(=O)Nc1cc(-c2cccc(F)c2)sc1C(=O)N[C@H]1CCCNC1
Category: yes

Compound: CN(C)C(=O)N[C@H]1CC[C@H](CCN2CCN(c3cccc(Cl)c3Cl)CC2)CC1.Cl [CARIPRAZINE HYDROCHLORIDE]
Category: no

Compound: CN1CCC[C@@H]1CCO[C@](C)(c1ccccc1)c1ccc(Cl)cc1.O=C(O)/C=C/C(=O)O [CLEMASTINE FUMARATE]
Category: no

Compound: CN(C)C(=O)/C(C#N)=C/c1ccc(-c2nc3cnc4[nH]ccc4c3n2C2CCCCC2)o1
Category: no

Compound: Cc1[nH]c(/C=C2\C(=O)Nc3ccc(S(=O)(=O)N(C)c4cccc(Cl)c4)cc32)c(C)c1C(=O)N1CCN(C)CC1
Category: yes

Compound: Cc1csc2c(N[C@@H](C)CN3CCN(S(=O)(=O)c4ccc(Cl)c(Cl)c4)CC3)ncnc12
Category: no

Compound: CN1CCN(c2ccc(OC(F)(F)F)c(Nc3ncc4c(n3)-c3c(c(C(N)=O)nn3CCO)CC4)c2)CC1
Category: yes

Compound: Cc1nc(Nc2n[nH]c3c2CN(C(=O)N[C@H](CN(C)C)c2ccccc2)C3(C)C)c2sccc2n1
Category: yes

Compound: Cc1nc(-c2cn3c(n2)-c2ccc(-c4cnn(C(C)(C)C(N)=O)c4)cc2OCC3)n(C(C)C)n1
Category: yes

Compound: COc1cc(-n2cnc3cc(-c4ccc(Cl)cc4)sc3c2=O)ccc1OCCN1CCCC1
Category: yes

Compound: Cc1nc(-c2ccc(-c3ccc(C(=O)N4CCc5cc6c(cc54)C4(CCN(C)CC4)CO6)cc3)c(C)c2)no1
Category: yes

Compound: CN(C)CC#Cc1ccc(OCCCc2sc(N3CCc4cccc(C(=O)Nc5nc6ccccc6s5)c4C3)nc2C(=O)O)c(F)c1
Category: no

Compound: C=CC(=O)Nc1cccc(C(=O)Nc2ccc(Nc3cc(-c4[nH]c(SC)nc4C)ccn3)cc2)c1
Category: yes

Compound: CCN(CC)CCCCNc1ncc2cc(-c3cc(OC)cc(OC)c3)c(NC(=O)NC(C)(C)C)nc2n1
Category: yes

Compound: CC(C)NCC(O)COc1ccc(CCOCC2CC2)cc1.Cl (stereo unspecified) [BETAXOLOL HYDROCHLORIDE]
Category: yes

Compound: C=CC(=O)Nc1cc2c(Nc3ccc(F)c(Cl)c3)ncnc2cc1OCCCN1CCOCC1.Cl.Cl [CANERTINIB DIHYDROCHLORIDE]
Category: yes

Compound: Cl.N#Cc1ccc2[nH]cc(CCCCN3CCN(c4ccc5oc(C(N)=O)cc5c4)CC3)c2c1 [VILAZODONE HYDROCHLORIDE]
Category: no

Compound: c1cn2cc(-c3ccc4cn[nH]c4c3)nc(Nc3ccc(N4CCOCC4)cc3)c2n1
Category: no

* * *

Tested on: U2OS
Measurement Notes: Multiplex assay against U2OS
Format: toxicity, cell-based
Protocol Conditions: human, 12 h, 1 µM, compound concentration 1 uM, replicate 2
Each entry below carries its reported Population Hoechst High Intensity Objects (%).
Property Measured: Population Hoechst High Intensity Objects (%)

Molecule: CN(C)CC#Cc1ccc(OCCCc2sc(N3CCc4cccc(C(=O)Nc5nc6ccccc6s5)c4C3)nc2C(=O)O)c(F)c1
Assay Target: U2OS
Unit Symbol: %
Measured: 4
--
Molecule: CC(C)NCC(O)COc1ccc(CCOCC2CC2)cc1.Cl (stereo not drawn) [BETAXOLOL HYDROCHLORIDE]
Assay Target: U2OS
Unit Symbol: %
Measured: 16
--
Molecule: CN(C)C(=O)/C(C#N)=C/c1ccc(-c2nc3cnc4[nH]ccc4c3n2C2CCCCC2)o1
Assay Target: U2OS
Unit Symbol: %
Measured: 2
--
Molecule: CN(C)C(=O)N[C@H]1CC[C@H](CCN2CCN(c3cccc(Cl)c3Cl)CC2)CC1.Cl [CARIPRAZINE HYDROCHLORIDE]
Assay Target: U2OS
Unit Symbol: %
Measured: 6
--
Molecule: C[C@@H](NCCCc1cccc(C(F)(F)F)c1)c1cccc2ccccc12.Cl [CINACALCET HYDROCHLORIDE]
Assay Target: U2OS
Unit Symbol: %
Measured: 9
--
Molecule: Cc1cc(C)cc(-c2cnc3cc(Cl)c(-c4cccc(O)c4)cc3c2OCCCN)c1
Assay Target: U2OS
Unit Symbol: %
Measured: 10
--
Molecule: Cc1nc(-c2ccc(-c3ccc(C(=O)N4CCc5cc6c(cc54)C4(CCN(C)CC4)CO6)cc3)c(C)c2)no1
Assay Target: U2OS
Unit Symbol: %
Measured: 12
--
Molecule: CN1CCC[C@@H]1CCO[C@](C)(c1ccccc1)c1ccc(Cl)cc1.O=C(O)/C=C/C(=O)O [CLEMASTINE FUMARATE]
Assay Target: U2OS
Unit Symbol: %
Measured: 1

* * *

System: HEK-293T
Measurement Notes: Multiplex assay against HEK293T
Assay type: toxicity, cell-based
Protocol Conditions: human, 24 h, 1 µM, compound concentration 1 uM, replicate 2
Decide by Population Mitotic Cells (%): equal to or exceeding 80% means rule met, less means rule not met.

Compound: C=CC(=O)Nc1cccc(C(=O)Nc2ccc(Nc3cc(-c4[nH]c(SC)nc4C)ccn3)cc2)c1
Category: rule met
//
Compound: C[C@@H](NCCCc1cccc(C(F)(F)F)c1)c1cccc2ccccc12.Cl [CINACALCET HYDROCHLORIDE]
Category: rule not met
//
Compound: c1cn2cc(-c3ccc4cn[nH]c4c3)nc(Nc3ccc(N4CCOCC4)cc3)c2n1 [ENTOSPLETINIB]
Category: rule not met
//
Compound: Cl.N#Cc1ccc2[nH]cc(CCCCN3CCN(c4ccc5oc(C(N)=O)cc5c4)CC3)c2c1 [VILAZODONE HYDROCHLORIDE]
Category: rule not met
//
Compound: C=CC(=O)Nc1cc2c(Nc3ccc(F)c(Cl)c3)ncnc2cc1OCCCN1CCOCC1.Cl.Cl [CANERTINIB DIHYDROCHLORIDE]
Category: rule not met
//
Compound: COc1cccc([C@@H](C)NCCCc2ccccc2Cl)c1.Cl [TECALCET HYDROCHLORIDE]
Category: rule not met

* * *

System: U2OS
Measurement Notes: Multiplex assay against U2OS
Format: toxicity, cell-based
Protocol Conditions: human, 24 h, 1 µM, compound concentration 1 uM, replicate 1

Compound: COc1cccc([C@@H](C)NCCCc2ccccc2Cl)c1.Cl [TECALCET HYDROCHLORIDE]
Population Fragmented Nuclei (%): 22
//
Compound: Cc1nc(Nc2n[nH]c3c2CN(C(=O)N[C@H](CN(C)C)c2ccccc2)C3(C)C)c2sccc2n1
Population Fragmented Nuclei (%): 11
//
Compound: Cc1c(-c2ccc(O)cc2)n(Cc2ccc(OCCN3CCCCCC3)cc2)c2ccc(O)cc12
Population Fragmented Nuclei (%): 15
//
Compound: CN1CCCC(n2nc(Cc3ccc(Cl)cc3)c3ccccc3c2=O)CC1.Cl (stereo not drawn) [AZELASTINE HYDROCHLORIDE]
Population Fragmented Nuclei (%): 16
//
Compound: CN(C)C(=O)/C(C#N)=C/c1ccc(-c2nc3cnc4[nH]ccc4c3n2C2CCCCC2)o1
Population Fragmented Nuclei (%): 12
//
Compound: Cc1nc(-c2cn3c(n2)-c2ccc(-c4cnn(C(C)(C)C(N)=O)c4)cc2OCC3)n(C(C)C)n1
Population Fragmented Nuclei (%): 6
//
Compound: OC1(c2ccc(Cl)cc2)CCN(Cc2c[nH]c3ccccc23)CC1
Population Fragmented Nuclei (%): 7
//
Compound: CC(C)NCC(O)COc1ccc(CCOCC2CC2)cc1.Cl (stereo not drawn) [BETAXOLOL HYDROCHLORIDE]
Population Fragmented Nuclei (%): 8

* * *

Collected Population Healthy Nuclei (%) values appear next to each entry.
Tested on: U2OS
Measurement Notes: Multiplex assay against U2OS
Assay type: toxicity, cell-based
Protocol Conditions: human, 24 h, 1 µM, compound concentration 1 uM, replicate 1
Property Measured: Population Healthy Nuclei (%)

Compound: Cc1cc(C)cc(-c2cnc3cc(Cl)c(-c4cccc(O)c4)cc3c2OCCCN)c1
Measured: 77

Compound: C[C@@]1(C(=O)Nc2ccc(F)nc2)CCCN1c1nc(Nc2cc(C3CC3)n[nH]2)c2cccn2n1 [BMS-754807]
Measured: 60

Compound: CN(C)C(=O)/C(C#N)=C/c1ccc(-c2nc3cnc4[nH]ccc4c3n2C2CCCCC2)o1
Measured: 79

Compound: Nc1c(C(=O)NCc2ccc(C(=O)NCCCC3CCCCC3)cc2)cnn1-c1ccccc1 [SR-318]
Measured: 85

Compound: COc1cc(-n2cnc3cc(-c4ccc(Cl)cc4)sc3c2=O)ccc1OCCN1CCCC1
Measured: 76

Compound: OC1(c2ccc(Cl)cc2)CCN(Cc2c[nH]c3ccccc23)CC1
Measured: 82

Compound: C=CC(=O)Nc1cccc(C(=O)Nc2ccc(Nc3cc(-c4[nH]c(SC)nc4C)ccn3)cc2)c1
Measured: 76

Compound: c1cn2cc(-c3ccc4cn[nH]c4c3)nc(Nc3ccc(N4CCOCC4)cc3)c2n1 [ENTOSPLETINIB]
Measured: 70

Compound: CN1CCCC(n2nc(Cc3ccc(Cl)cc3)c3ccccc3c2=O)CC1.Cl (stereo not drawn) [AZELASTINE HYDROCHLORIDE]
Measured: 65

Compound: Cc1csc2c(N[C@@H](C)CN3CCN(S(=O)(=O)c4ccc(Cl)c(Cl)c4)CC3)ncnc12
Measured: 78

Compound: COc1cccc([C@@H](C)NCCCc2ccccc2Cl)c1.Cl [TECALCET HYDROCHLORIDE]
Measured: 57

Compound: CNc1nc(NCc2ccc(NS(C)(=O)=O)cc2Cl)cc(-c2ccccn2)n1
Measured: 78

Compound: Cn1cc(-c2[nH]c3cc(NC(=O)[C@H](N)C4CCCCC4)cc4c3c2C=NNC4=O)cn1
Measured: 80

Compound: Cl.N#Cc1ccc2[nH]cc(CCCCN3CCN(c4ccc5oc(C(N)=O)cc5c4)CC3)c2c1 [VILAZODONE HYDROCHLORIDE]
Measured: 71

Compound: CC(C)(O)CNc1ncc(-c2ccnc(Nc3ccnc(Cl)c3)n2)c(CC2CC2)n1
Measured: 75

Compound: O=C1NCN(c2ccccc2)C12CCN(CCCOc1ccc(F)cc1)CC2 [SPIRAMIDE]
Measured: 80

Compound: Cc1nc(-c2ccc(-c3ccc(C(=O)N4CCc5cc6c(cc54)C4(CCN(C)CC4)CO6)cc3)c(C)c2)no1 [SB-224289]
Measured: 75

Compound: CC(C)NCC(O)COc1ccc(CCOCC2CC2)cc1.Cl (stereo not drawn) [BETAXOLOL HYDROCHLORIDE]
Measured: 83
